# SYSTEM NAME: rat liver FBPase (Rattus norvegicus)
# Sequence (P19112 2-363 limits assumed): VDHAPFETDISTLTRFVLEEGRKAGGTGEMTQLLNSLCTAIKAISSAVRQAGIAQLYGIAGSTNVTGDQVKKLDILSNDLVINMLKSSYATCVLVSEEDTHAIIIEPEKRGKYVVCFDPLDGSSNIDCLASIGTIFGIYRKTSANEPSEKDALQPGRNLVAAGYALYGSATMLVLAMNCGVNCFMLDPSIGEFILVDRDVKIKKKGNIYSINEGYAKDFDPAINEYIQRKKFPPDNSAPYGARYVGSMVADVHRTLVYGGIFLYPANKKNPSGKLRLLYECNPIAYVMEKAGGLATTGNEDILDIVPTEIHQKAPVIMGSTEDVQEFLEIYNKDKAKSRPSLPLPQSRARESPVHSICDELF
ENDPOINT LABEL: IC50
Don't forget the unit after the number, please.

Param readout= IC50; system= rat liver FBPase (Rattus norvegicus); entry= Nc1ncnc2c1ncn2[C@@H]1O[C@H](COP(=O)(O)O)[C@@H](O)[C@H]1O [AMP, reference compound] ; returns value.
20 µM
